target-or-test-system: W255A N-His6-FhuD2 (Staphylococcus aureus, UniProt Q7BGA5, W279A)
test-summary: Intrinsic Trp fluorescence quenching binding assay, FhuD2 mutant W255A
Design: species or system S. aureus
measurement-context: app Kd, FhuD2 variant W255A
measure: Kd (nM)
Give bare numbers, in nM.

compound CC(=O)N(O)CCCCCNC(=O)CCC(=O)N(O)CCCCCNC(=O)CCC(=O)N(O)CCCCCN , Kd observed: 60

====

target-or-test-system: Y106F N-His6-FhuD2 (Staphylococcus aureus, UniProt Q7BGA5, Y130F)
test-summary: Intrinsic Trp fluorescence quenching binding assay, FhuD2 mutant Y106F
Design: species or system S. aureus
measurement-context: read-out: app Kd; FhuD2 variant Y106F
measure: Kd (µM)
Numbers only, in µM.

// recorded Kd for CC(=O)N([O-])CCCCCNC(=O)CCC(=O)N([O-])CCCCCNC(=O)CCC(=O)N([O-])CCCCCN.[Fe+3] : 0.04
